# System: KM12
# assay procedure: NCI tumour cell line growth inhibition, 48 h
Activity calls are given as the source filed them. Cut-off read from the data, not from the text of the source: active = GI50 up to about 1.1 µM and inactive = higher.
measurement label: GI50

Input line: For KM12, provide GI50 of `COc1ccc(CCNC(=O)Cc2ccccc2CCO)cc1OC` please.
Output line: > 100 µM (inactive)

Input line: What reported GI50 corresponds to `CCOC(=O)c1c[nH]c2c(ccc3ncccc32)c1=O` on KM12?
Output line: > 100 µM (inactive)

Input line: # value lookup — system KM12, readout GI50, item C[C@]12CC[C@H](O)CC1=CC[C@@H]1C2CC[C@]2(C)C(=O)N(N)C(=O)CC12 (stereo partly specified)
Output line: > 100 µM (inactive)

Input line: Field: GI50 (KM12). Entry: `Cc1cc(C)c2c(O)c(S(=O)(=O)c3ccc(Cl)cc3)c(=O)oc2c1`
Output line: 36.1 µM (inactive)

Input line: Write down the reported GI50 of `CC1=CC(=O)/C(=C/n2c(=S)[nH]c3cc(C)ccc32)C(=O)O1` , test system: KM12.
Output line: > 100 µM (inactive)

Input line: Recorded GI50 for `CCOC(=O)Cn1nc2ccc(Nc3nc4ccccc4nc3C(=O)OCC)cc2n1` with KM12, please?
Output line: > 100 µM (inactive)

Input line: Form: Entry = O=c1c2ncn(C3CC(O)C(CO)O3)c2nnn1Cc1ccccc1[N+](=O)[O-] (stereo unspecified) | System = KM12 | GI50 = ____
Output line: > 100 µM (inactive)

Input line: Which GI50 is reported with KM12 for this entry: COc1cc2c3c(c1OCc1ccccc1)NCCC3NCC2 (stereo unspecified) ?
Output line: > 100 µM (inactive)

Input line: Lab request: please report GI50 under test system KM12 for `Cn1c(=O)c2[nH]c(N/N=C3/SCC(=O)N3Cc3ccccc3)nc2n(C)c1=O`
Output line: 48.2 µM (inactive)

Input line: Request body: readout GI50, system KM12, query `CCOC(=O)c1cccc([N+](=O)[O-])c1N` . Return the value.
Output line: > 100 µM (inactive)

Input line: Reported GI50 for KM12, given `O=c1c2c3c(sc2nc2n1sc1nc4sc5c(c4c(=O)n12)CCCC5)CCCC3` ?
Output line: > 89.7 µM (inactive)

----------
# System: IGROV-1
# assay procedure: NCI tumour cell line growth inhibition, 48 h
The source made the active and inactive calls. Rule as the data show it: active = GI50 up to about 1.1 µM and inactive = higher.
Your reply should match one of these outcome classes. 1 (yes) (active), 0 (no) (inactive)

Input line: State the result this test recorded for COC(=O)C1=C(C)NC2=C(C(=O)c3ccccc32)C1c1c[nH]nc1-c1ccccc1 (stereo not given) .
Output line: 0 (no)

Input line: Just curious, what result did COc1cc2c(c(O)c1OC)C(O)C1CCC(=O)N1C2c1cccc2ccccc12 (stereo not given) get here?
Output line: 0 (no)

Input line: // outcome(item) with item = `Cc1ccc2nc3c(C(=O)NCCN(C)C)cccc3cc2c1`
Output line: 0 (no)

Input line: Test call, this molecule: CC(C)(C)OC(=O)NC(Cc1ccc(OC(C)(C)C)cc1)C(=O)N[C@H]1CC[C@H](C(=O)O)C1 (stereo not given in full)
Output line: 0 (no)

Input line: Please share the test call associated with `CC(=O)c1ccc2c(c1)N(CCCN1CCN(CCO)CC1)c1ccccc1C2` .
Output line: 0 (no)

Input line: Per the records of this test, what outcome belongs to `COc1cc2c(/C=C3/C(=O)Nc4ccc(O)cc43)c(Cl)[nH]c2cc1C` ?
Output line: 1 (yes)

Input line: # fetch the recorded call for `CCOC(=O)c1c[nH]c2c(ccc3ncccc32)c1=O` here
Output line: 0 (no)

Input line: Recorded test outcome, item Cc1cc(=O)oc2cc(OCC(O)COC(C)C)ccc12 (stereo not given)
Output line: 0 (no)

Input line: What classification did `CCSC1=CC(=O)c2nc3ccccc3c3ccnc1c23` end up with in this test?
Output line: 0 (no)

Input line: Entry `CCOC(=O)C1=CNC2=N[C@H]3CCCC[C@@H]3N2C1=O` : call = ?
Output line: 0 (no)

From: ChEMBL document CHEMBL1201862
